Species: Rattus norvegicus
assay-method-text: Antiantidiuretic activity in rats.
Format: functional, organism-based
test-parameters: Urine, read-out: pA2 (converted)
Kb of 20 nM or higher: 1. Under 20 nM: -1.

# count of solved cases: 5
structure-smiles	class-assignment
CC(C)[C@@H]1NC(=O)[C@H](Cc2ccccc2)NC(=O)[C@@H](Cc2ccccc2)NC(=O)CC2(CCCCC2)SSC[C@@H](C(=O)N2CCC[C@H]2C(=O)N[C@@H](CCCN=C(N)N)C(=O)NCC(N)=O)NC(=O)[C@H](CC(N)=O)NC1=O	-1
CC(C)C[C@H]1NC(=O)CC2(CCCCC2)SSC[C@@H](C(=O)N2CCC[C@H]2C(=O)N[C@@H](CCCN=C(N)N)C(=O)NCC(N)=O)NC(=O)[C@H](CC(N)=O)NC(=O)[C@H](C(C)C)NC(=O)[C@H](Cc2ccccc2)NC1=O	-1
CC(C)[C@@H]1NC(=O)[C@H](Cc2ccccc2)NC(=O)[C@@H](CCCN=C(N)N)NC(=O)CC2(CCCCC2)SSC[C@@H](C(=O)N2CCC[C@H]2C(=O)N[C@@H](CCCN=C(N)N)C(=O)NCC(N)=O)NC(=O)[C@H](CC(N)=O)NC1=O	1
CC[C@@H](C)[C@H]1NC(=O)CC2(CCCCC2)SSC[C@@H](C(=O)N2CCC[C@H]2C(=O)N[C@@H](CCCN=C(N)N)C(=O)NCC(N)=O)NC(=O)[C@H](CC(N)=O)NC(=O)[C@H](C(C)C)NC(=O)[C@H](Cc2ccccc2)NC1=O	-1
CC(C)[C@@H]1NC(=O)[C@H](Cc2ccccc2)NC(=O)[C@@H](C(C)C)NC(=O)CC2(CCCCC2)SSC[C@@H](C(=O)N2CCC[C@H]2C(=O)N[C@@H](CCCN=C(N)N)C(=O)NCC(N)=O)NC(=O)[C@H](CC(N)=O)NC1=O	1

Problem: hey, is Kb for this one >= 20 nM? `CC(C)[C@@H]1NC(=O)[C@H](Cc2ccccc2)NC(=O)[C@@H](Cc2ccc(O)cc2)NC(=O)CC2(CCCCC2)SSC[C@@H](C(=O)N2CCC[C@H]2C(=O)N[C@@H](CCCN=C(N)N)C(=O)NCC(N)=O)NC(=O)[C@H](CC(N)=O)NC1=O`
Solution: 1

Problem: Threshold query (Kb >= 20 nM) on `CC(C)[C@@H]1NC(=O)[C@H](Cc2ccccc2)NC(=O)[C@@H](Cc2ccc(O)cc2)NC(=O)CC2(CCCCC2)SSC[C@@H](C(=O)N2CCC[C@H]2C(=O)N[C@H](CCCN=C(N)N)C(=O)NCC(N)=O)NC(=O)[C@H](CC(N)=O)NC1=O`
Solution: 1

* * *

A collection of molecules and their measured Kb
System: Rattus norvegicus
assay-method-text: In vivo anti-oxytocic activity in rat uterus
Assay type: functional, organism-based
test-parameters: read-out: pA2 (converted)
Respond with the bare value in nM.

structure-smiles	quantity-measured	unit-spec	recorded-result
CC(C)[C@@H]1NC(=O)[C@H](Cc2ccccc2)NC(=O)[C@@H](Cc2ccccc2)NC(=O)CC2(CCCCC2)SSC[C@@H](C(=O)N2CCC[C@H]2C(=O)N[C@@H](CCCN=C(N)N)C(=O)NCC(N)=O)NC(=O)[C@H](CC(N)=O)NC1=O	Kb	nM	120

API: the following record is the query input.
Problem: Entry `CC[C@@H](C)[C@H]1NC(=O)CC2(CCCCC2)SSC[C@@H](C(=O)N2CCC[C@H]2C(=O)N[C@@H](CCCN=C(N)N)C(=O)NCC(N)=O)NC(=O)[C@H](CC(N)=O)NC(=O)[C@H](C(C)C)NC(=O)[C@H](Cc2ccccc2)NC1=O` has what Kb?
Solution: 617

* * *

System: Rattus norvegicus
assay-method-text: In vivo anti-oxytocic activity in rat uterus
Assay type: functional, organism-based
test-parameters: read-out: pA2 (converted)
Catalogue of Kb values
The answer is to be given in nM; state only the numeric part.

Problem: What value of Kb has been recorded for this entry: `CC(C)[C@@H]1NC(=O)[C@H](Cc2ccccc2)NC(=O)[C@H](Cc2ccc(O)cc2)NC(=O)CC2(CCCCC2)SSC[C@@H](C(=O)N2CCC[C@H]2C(=O)N[C@@H](CCCN=C(N)N)C(=O)NCC(N)=O)NC(=O)[C@H](CC(N)=O)NC1=O`
Solution: 339

Problem: Endpoint output: Kb of `CC(C)[C@@H]1NC(=O)[C@H](Cc2ccccc2)NC(=O)[C@@H](Cc2ccc(O)cc2)NC(=O)CC2(CCCCC2)SSC[C@@H](C(=O)N2CCC[C@H]2C(=O)N[C@@H](CCCN=C(N)N)C(=O)NCC(N)=O)NC(=O)[C@H](CC(N)=O)NC1=O` . Value?
Solution: 97.7

* * *

Organism: Rattus norvegicus
assay-method-text: In vitro anti-oxytocic activity in rat uterus (no Mg2+)
Assay type: functional
test-parameters: read-out: pA2 (converted)
Numbered stars: 1 amine (or outer) side, 2 acyl side, 3 side chain; on linkers, the order of the positions; unused ones are H or OH. Bridge positions count the residues as written; N and C are the ends. Peptide text beside a SMILES is read from it. X1 = O=C(CC1(S[*:2])CCCCC1)[*:1]
Strictly below 50 nM in Kb: true (1). Otherwise: false (0).

molecule	class-assignment
CC(C)C[C@H]1NC(=O)CC2(CCCCC2)SSC[C@@H](C(=O)N2CCC[C@H]2C(=O)N[C@@H](CCCN=C(N)N)C(=O)NCC(N)=O)NC(=O)[C@H](CC(N)=O)NC(=O)[C@H](C(C)C)NC(=O)[C@H](Cc2ccccc2)NC1=O	true (1)
CC(C)[C@@H]1NC(=O)[C@H](Cc2ccccc2)NC(=O)[C@@H](Cc2ccc(O)cc2)NC(=O)CC2(CCCCC2)SSC[C@@H](C(=O)N2CCC[C@H]2C(=O)N[C@H](CCCN=C(N)N)C(=O)NCC(N)=O)NC(=O)[C@H](CC(N)=O)NC1=O	true (1)
CC(C)[C@@H]1NC(=O)[C@H](Cc2ccccc2)NC(=O)[C@@H](CCCN=C(N)N)NC(=O)CC2(CCCCC2)SSC[C@@H](C(=O)N2CCC[C@H]2C(=O)N[C@@H](CCCN=C(N)N)C(=O)NCC(N)=O)NC(=O)[C@H](CC(N)=O)NC1=O	false (0)
CC[C@@H](C)[C@H]1NC(=O)CC2(CCCCC2)SSC[C@@H](C(=O)N2CCC[C@H]2C(=O)N[C@@H](CCCN=C(N)N)C(=O)NCC(N)=O)NC(=O)[C@H](CC(N)=O)NC(=O)[C@H](C(C)C)NC(=O)[C@H](Cc2ccccc2)NC1=O	true (1)
CC(C)[C@@H]1NC(=O)[C@H](Cc2ccccc2)NC(=O)[C@H](Cc2ccc(O)cc2)NC(=O)CC2(CCCCC2)SSC[C@@H](C(=O)N2CCC[C@H]2C(=O)N[C@@H](CCCN=C(N)N)C(=O)NCC(N)=O)NC(=O)[C@H](CC(N)=O)NC1=O	true (1)
CC(C)[C@@H]1NC(=O)[C@H](Cc2ccccc2)NC(=O)[C@@H](Cc2ccc(O)cc2)NC(=O)CC2(CCCCC2)SSC[C@@H](C(=O)N2CCC[C@H]2C(=O)N[C@@H](CCCN=C(N)N)C(=O)NCC(N)=O)NC(=O)[C@H](CC(N)=O)NC1=O	true (1)
CC(C)[C@@H]1NC(=O)[C@H](Cc2ccccc2)NC(=O)CNC(=O)CC2(CCCCC2)SSC[C@@H](C(=O)N2CCC[C@H]2C(=O)N[C@@H](CCCN=C(N)N)C(=O)NCC(N)=O)NC(=O)[C@H](CC(N)=O)NC1=O (GFVNCPRG-NH2; linker N-5 via X1)	false (0)
CC(C)[C@@H]1NC(=O)[C@H](Cc2ccccc2)NC(=O)[C@@H](C(C)C)NC(=O)CC2(CCCCC2)SSC[C@@H](C(=O)N2CCC[C@H]2C(=O)N[C@@H](CCCN=C(N)N)C(=O)NCC(N)=O)NC(=O)[C@H](CC(N)=O)NC1=O	true (1)

# ---- query molecule ----
Problem: Dear reviewer, please state whether `CC(C)[C@@H]1NC(=O)[C@H](Cc2ccccc2)NC(=O)[C@@H](C)NC(=O)CC2(CCCCC2)SSC[C@@H](C(=O)N2CCC[C@H]2C(=O)N[C@@H](CCCN=C(N)N)C(=O)NCC(N)=O)NC(=O)[C@H](CC(N)=O)NC1=O` has Kb strictly beneath 50 nM.
Solution: false (0)

* * *

Effective dose values by entry
Organism: Rattus norvegicus
assay-method-text: Effective dose required for anti-vasopressor activity in phenoxybenzamine-treated rats under urethane anesthesia
Format: functional
Your answer is read as nM/kg, so omit the unit and give the number.

Example entries and their recorded answers appear below.
structure-smiles	recorded-result
CC(C)[C@@H]1NC(=O)[C@H](Cc2ccccc2)NC(=O)[C@@H](Cc2ccc(O)cc2)NC(=O)CC2(CCCCC2)SSC[C@@H](C(=O)N2CCC[C@H]2C(=O)N[C@H](CCCN=C(N)N)C(=O)NCC(N)=O)NC(=O)[C@H](CC(N)=O)NC1=O	0.6
CC(C)C[C@H]1NC(=O)CC2(CCCCC2)SSC[C@@H](C(=O)N2CCC[C@H]2C(=O)N[C@@H](CCCN=C(N)N)C(=O)NCC(N)=O)NC(=O)[C@H](CC(N)=O)NC(=O)[C@H](C(C)C)NC(=O)[C@H](Cc2ccccc2)NC1=O	26
CC(C)[C@@H]1NC(=O)[C@H](Cc2ccccc2)NC(=O)[C@@H](Cc2ccccc2)NC(=O)CC2(CCCCC2)SSC[C@@H](C(=O)N2CCC[C@H]2C(=O)N[C@@H](CCCN=C(N)N)C(=O)NCC(N)=O)NC(=O)[C@H](CC(N)=O)NC1=O	0.58

As a next step, examine the molecule that follows.
Problem: Could you share which Effective dose value was measured for `CC(C)[C@@H]1NC(=O)[C@H](Cc2ccccc2)NC(=O)[C@@H](C(C)C)NC(=O)CC2(CCCCC2)SSC[C@@H](C(=O)N2CCC[C@H]2C(=O)N[C@@H](CCCN=C(N)N)C(=O)NCC(N)=O)NC(=O)[C@H](CC(N)=O)NC1=O` ?
Solution: 27
